- testedOn: T1, recombinant hTACSTD2-Fc-His protein (Creative BioMart) (human, UniProt P09758 27-274, limits assumed)
- T1 construct: bought protein; also called hTROP-2 (low-density antigen-coated ELISA); not shown: Fc part of the bought fusion protein; not described; His tag
- T1 sequence: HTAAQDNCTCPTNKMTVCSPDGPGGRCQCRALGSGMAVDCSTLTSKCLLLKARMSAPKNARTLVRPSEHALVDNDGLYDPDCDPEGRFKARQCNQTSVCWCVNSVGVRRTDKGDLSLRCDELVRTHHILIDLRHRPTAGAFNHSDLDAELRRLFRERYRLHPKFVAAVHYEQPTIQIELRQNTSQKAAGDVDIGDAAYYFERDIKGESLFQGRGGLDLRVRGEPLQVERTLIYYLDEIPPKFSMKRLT
- testDetails: low-density antigen-coated ELISA, plate coated with 0.1 µg/mL hTACSTD2-Fc-His
measuredProperty: EC50 (µg/mL)
# number only, unit µg/mL dropped from output

For orientation, consider the following solved cases.
- binder: "humanized T6-16 antibody HuT6-16-2 (antibody, V domains shown, HuT6-16 VH2 with HuT6-16 VL; also called HuT6-16-2 antibody) VH: QVQLVQSGAEVKKPGASVKVSCKASGYTFTDYNMHWVRQAPGQGLEWIGYIYPYNGGTGYNQRFKSRATMTVDTSTSTAYMELRSLRSDDTAVYYCAREDYGSSPSYAMDYWGQGTMVTVSS VL: DIVMTQSPLSLPVTPGEPASISCRSSQSLVHGNGNTYLHWYLQKPGQSPQLLIYKVSNRFSGVPDRFSGSGSGTDFTLKISRVEAEDVGVYYCSQTTHVPTFGGGTKVEIK"
  measuredProperty: "EC50"
  uom: "µg/mL"
  valueReported: 0.049
- binder: "anti-hTROP-2 monoclonal antibody clone T6-16 (antibody, mouse IgG2a, V domains shown, mouse IgG2a, hybridoma FERM BP-11346; also called T6-16 antibody) VH: EVQLQQSGPELVKPGASVKISCKASGYTFTDYNMHWVKQSHGKNLEWIGYIYPYNGGTGYNQRFKSRATMTVDKSSSTAYMELRSLTSDDSAVYYCAREDYGSSPSYAMDYWGQGTSVIVSS VL: DVVMTQTPLSLPVSLGDQASISCRSSQSLVHGNGNTYLHWYLQKPGQSPKLLIYKVSNRFSGVPDRFSGSGSGTDFTLKISRVEAEDLGVYFCSQTTHVPTFGSGTKLEIK"
  measuredProperty: "EC50"
  uom: "µg/mL"
  valueReported: 0.041
- binder: "humanized K5-70 antibody (HuK5-70) (antibody, V domains shown, human IgG1 / human kappa constant regions from the vectors pFUSE-CHIg-hG1 and pFUSE2-CLIg-hk; also called HuK5-70 antibody) VH: QVQLVQSGAEVKKPGASVKVSCKASGYTFTIYWINWVRQAPGQRLEWIGNIYPSDSYTNYNQKFKDKATLTVDTSASTAYMELSSLRSEDTAVYYCTRTSMADYWGQGTLVTVSS VL: EIVLTQSPATLSLSPGERATLSCRASQSIGTSIHWYQQKPGQAPRLLIKYASESISGIPARFSGSGSGTDFTLTISSLEPEDFAVYYCQQSNSWPFTFGQGTKVEIK"
  measuredProperty: "EC50"
  uom: "µg/mL"
  valueReported: 0.222

Look up EC50: anti-hTROP-2 monoclonal antibody clone K5-70 (antibody, mouse IgG2a, V domains shown, mouse IgG2a, hybridoma FERM BP-11251; also called K5-70 antibody; mouse K5-70 antibody) VH: QVQLQQPGAELVRPGASVKLSCKASGYTFTIYWINWVKQRPGQGLEWIGNIYPSDSYTNYNQKFKDKATLTVDKSSSTAYMQLSSPTSEDSAVYYCTRTSMADYWGQGTTLTVSS VL: DILLTQSPAILSVSPGERVSFSCRASQSIGTSIHWYQQRTNGSPRLLIKYASESISGIPSRFSGSGSGTDFTLSINSVESEDIADYYCQQSNSWPFTFGSGTKLEIK
0.012
